B1: SMARCE1 (parent)
chain: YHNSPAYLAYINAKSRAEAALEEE

- Variants of: B1
- testName: protein stability index of a GFP-peptide fusion (GPS, HEK-293T) (PSI 1-6); higher = more stable;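 also: lentivirally expressed fusions sorted by FACS into six bins by GFP to DsRed ratio, PSI derived from sequencing read proportions per bin multiplied by bin number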
- runParameters: c terminus: a fixed tail appended
propertyName: protein stability index
Provide a numeric answer; units are not to be included.

Solved entries (count: 5):
In: // Input: Y1K . Output its protein stability index only.
Out: 4.96

In: // Input: L21E . Output its protein stability index only.
Out: 1.84

In: // Input: E22G . Output its protein stability index only.
Out: 2.67

In: // Input: Y10W . Output its protein stability index only.
Out: 2.28

In: // Input: E24P . Output its protein stability index only.
Out: 1.45

Others:
In: // Input: K14C . Output its protein stability index only.
Out: 2.14

In: // Input: A6T . Output its protein stability index only.
Out: 1.78

In: // Input: I11C . Output its protein stability index only.
Out: 1.66

In: // Input: A17G . Output its protein stability index only.
Out: 3.02

In: // Input: A20N . Output its protein stability index only.
Out: 2.42

In: // Input: L21S . Output its protein stability index only.
Out: 1.95
